Test system: A2780 cells
assay-details: MTT antiproliferative assay, A2780
Type: cell-based, human
experimental-context: Homo sapiens, A2780, 10 μM, 72 h, values <20% considered negligible, read-out: Growth inhibition (%) ± SEM, A2780
Think of 60% as a floor: if inhibition at 10 µM stands on it or above, it is criterion met; beneath it, criterion not met.

Some solved cases for reference:
> print(dat)
                                   compound  measured.target        class.label
1  COC(=O)[C@]1(C)CCC[C@@]2(C)C3CC[C@]4(O)C[C@@]3(CCC21)[C@@H](O)[C@]4(O)CNCc1ccc(F)cc1 (stereo partly shown)      A2780 cells  criterion not met
2  COC(=O)[C@]1(C)CCC[C@@]2(C)C3CC[C@]4(O)C[C@@]3(CCC21)[C@@H](O)[C@]4(O)CN(C)Cc1ccccc1 (stereo partly shown)      A2780 cells  criterion not met
3  COC(=O)[C@]1(C)CCC[C@@]2(C)C3CC[C@]4(O)C[C@@]3(CCC21)[C@@H](O)[C@]41CO1 (stereo partly shown)      A2780 cells  criterion not met
4  COC(=O)[C@]1(C)CCC[C@@]2(C)[C@@H]3CCC4(O)C[C@@]3(CC[C@@H]21)[C@@H](O)[C@]4(O)CN[C@H](C)c1ccc(F)cc1      A2780 cells      criterion met
5  COC(=O)[C@]1(C)CCC[C@@]2(C)C3CC[C@]4(O)C[C@@]3(CCC21)[C@@H](O)[C@]4(O)CNCc1ccc(OC)cc1 (stereo partly shown)      A2780 cells  criterion not met
6  COC(=O)[C@]1(C)CCC[C@@]2(C)C3CC[C@]4(O)C[C@@]3(CCC21)[C@@H](O)[C@]4(O)CNCc1cccc2ccccc12 (stereo partly shown)      A2780 cells      criterion met
7  COC(=O)[C@]1(C)CCC[C@@]2(C)C3CC[C@]4(O)C[C@@]3(CCC21)[C@@H](O)[C@]4(O)CN (stereo partly shown)      A2780 cells  criterion not met
8  C=C1[C@H](O)[C@@]23CCC4[C@@](C)(CCC[C@@]4(C)C(=O)OC)C2CC[C@]1(O)C3 (stereo partly shown)      A2780 cells  criterion not met

Tell me whether inhibition at 10 µM is at least 60% here: CC[C@@H](NC[C@@]1(O)[C@H](O)[C@@]23CCC4[C@@](C)(CCC[C@@]4(C)C(=O)OC)C2CC[C@]1(O)C3)c1ccccc1 (stereo partly shown)
criterion not met

Tell me whether inhibition at 10 µM is at least 60% here: COC(=O)[C@]1(C)CCC[C@@]2(C)C3CC[C@]4(O)C[C@@]3(CCC21)[C@@H](O)[C@]4(O)CN[C@H](C)c1ccc2ccccc2c1 (stereo partly shown)
criterion met

Tell me whether inhibition at 10 µM is at least 60% here: COC(=O)[C@]1(C)CCC[C@@]2(C)C3CC[C@]4(O)C[C@@]3(CCC21)[C@@H](O)[C@]41CN(Cc2ccccc2)CO1 (stereo partly shown)
criterion not met

Tell me whether inhibition at 10 µM is at least 60% here: COC(=O)[C@]1(C)CCC[C@@]2(C)C3CC[C@]4(O)C[C@@]3(CCC21)[C@@H](O)[C@]4(O)CNCc1ccccc1 (stereo partly shown)
criterion not met

Data origin: paper PMC9861858
